- TARGET: CYP2C19 (Homo sapiens, UniProt P33261)
- Sequence (P33261 whole entry): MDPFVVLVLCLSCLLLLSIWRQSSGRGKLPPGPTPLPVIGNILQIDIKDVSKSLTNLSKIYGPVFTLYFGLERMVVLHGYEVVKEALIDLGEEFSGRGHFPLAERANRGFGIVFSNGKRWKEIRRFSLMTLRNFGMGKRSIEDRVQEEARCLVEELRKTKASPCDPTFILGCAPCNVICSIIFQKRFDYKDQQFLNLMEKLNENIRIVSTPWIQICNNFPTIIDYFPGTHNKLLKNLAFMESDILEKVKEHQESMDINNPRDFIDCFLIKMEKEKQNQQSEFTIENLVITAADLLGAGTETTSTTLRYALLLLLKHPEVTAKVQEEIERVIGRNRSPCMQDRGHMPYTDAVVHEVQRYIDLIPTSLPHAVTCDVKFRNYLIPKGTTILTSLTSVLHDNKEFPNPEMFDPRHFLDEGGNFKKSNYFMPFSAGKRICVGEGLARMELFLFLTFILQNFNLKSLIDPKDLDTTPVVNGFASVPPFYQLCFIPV
- ASSAY COMMENT: Inhibition of CYP2C19 (unknown origin) at 20 uM by P450-glo assay
- Assay type: ADME
OBSERVABLE: inhibition at 20 µM (%)

Below are worked cases with known answers.
O=C(O)CCc1nnc(C(=O)Nc2cccc(-c3ccc(F)cc3)c2)s1 | 25.2
Cc1cccc(-c2cccc(NC(=O)c3nnc(CCC(=O)O)s3)c2)c1 | 37.2

I. O=C(O)CCc1ccc(OCc2nnc(C(=O)Nc3cccc(Cl)c3)s2)cc1
II. O=C(O)CCc1ccc(OCc2nnc(C(=O)Nc3ccccc3F)s2)cc1
Ask: # argmax over inhibition at 20 µM for candidates I and II Your choice should be expressed through its label.
Result: I
(I: 77.7%, II: -3.3%)

Reference source: ChEMBL document CHEMBL3804779
